Assay: qHTS for Inhibitors of human tyrosyl-DNA phosphodiesterase 1 (TDP1): qHTS in cells in absence of CPT; also: nearly all actives have a fitted effect of over 55% in size
Conditions: DT40 Tdp1-/- hTDP1 cells, no CPT, ATP luminescence, 48 h
Experimental: Human tyrosyl-DNA phosphodiesterase 1 (TDP1) is a novel repair gene, and we propose to use it as a new target for anticancer drug development. […] For the primary screen, Tdp1-/-;hTDP1 cells will be exposed to small molecules in the presence or absence of CPT, and their growth kinetics will be evaluated after 48 hours by measuring ATP activity. […] The hit compounds will then be evaluated in the presence or absence of CPT using Tdp1-/- cells. […]
Out of some 420,000 compounds screened, about 64,000 (15%) were called active. Not shown: some 27% with an inconclusive outcome. Calls follow the shape of the dose curve; as a rule, active = well fitted inhibition curve with a large enough effect; inconclusive = small, poorly fitted or top-dose-only effect; inactive = flat fitted curve, though single readings scatter. A selection follows.
Labels: active, inactive

                                    compound  discrete_label
 0          CCCCc1ccc(NC(=S)NCCCN2CCOCC2)cc1        inactive
 1              Cc1ccc(NC(=S)NCCN2CCOCC2)cc1        inactive
 2  COc1ccc(S(=O)(=O)NCC(c2ccco2)N2CCOCC2)cc1 (stereo unspecified)        inactive
 3  CC(=O)c1ccc(NC(=O)CSc2nnc(NC(=O)Nc3ccccc3)s2)cc1        inactive
 4  COc1cc(/C=N/n2c(C)n[nH]c2=S)ccc1OCc1ccccc1        inactive
 5  CC(C)(CNCC(O)c1ccccc1)N1CCOCC1 (stereo unspecified)        inactive
 6      CCOc1cccc(/C=N/NC(=S)NCCN2CCOCC2)c1O          active
 7      Cc1ccc2c(cnn2C(=O)CCC(=O)NC2CCCC2)c1        inactive
 8        O=S(=O)(c1ccc(Br)cc1)n1ccc2ccccc21          active
 9    CN(C(=N)N)c1ccc(/C=C2\C=Cc3ccccc32)cc1          active
10  CCN(CC)S(=O)(=O)c1ccc2[nH]c(=O)cc(C(=O)N(C)C3CCS(=O)(=O)C3)c2c1 (stereo unspecified)        inactive

###

assay: qHTS for Inhibitors of human tyrosyl-DNA phosphodiesterase 1 (TDP1): qHTS in cells in absence of CPT; conditions: DT40 Tdp1-/- hTDP1 cells, no CPT, ATP luminescence, 48 h; also: nearly all actives have a fitted effect of over 55% in size
Among all 420,000 compounds or so, about 64,000 (15%) were called active. Another 27% or so got no clear call; they are omitted. The call rests on the fitted dose curve; in most records, active means well fitted inhibition curve with a large enough effect; inconclusive means small, poorly fitted or top-dose-only effect; inactive means flat fitted curve, though single readings scatter. A selection follows.
Labels: active, inactive

>>> print(df.to_string())
                                   compound  discrete_label
0  Cc1cccc(C(=O)NC(=S)N2CCN(c3ccc([N+](=O)[O-])cc3)CC2)c1          active
1  COC(=O)c1cc(=O)n(-c2c(Cl)cc(C(F)(F)F)cc2Cl)[nH]1        inactive
2  O=C(NC(=S)NC1CCS(=O)(=O)C1)c1cccc([N+](=O)[O-])c1 (stereo not drawn)        inactive

###

assay: qHTS for Inhibitors of human tyrosyl-DNA phosphodiesterase 1 (TDP1): qHTS in cells in absence of CPT; settings: DT40 Tdp1-/- hTDP1 cells, no CPT, ATP luminescence, 48 h; also: nearly all actives have a fitted effect of over 55% in size
The campaign covered roughly 420,000 compounds. About 64,000 (15%) were called active. About 27% were inconclusive and are not listed. The call rests on the fitted dose curve; in most records, active means well fitted inhibition curve with a large enough effect; inconclusive means small, poorly fitted or top-dose-only effect; inactive means flat fitted curve, though single readings scatter. The list is a sample of the results.
Labels: True for active, False for inactive

In [3]: df
Out[3]:
                                    compound  discrete_label
 0     Clc1ccc(-c2cc(C3CCNCC3)[nH]n2)c(Cl)c1            True
 1  Cc1ccccc1N1CCN(CCCOc2ccc3c(C)cc(=O)oc3c2)CC1            True
 2  Cc1cc(OCCCN2CCN(Cc3ccccc3)CC2)ccc1[N+](=O)[O-]            True
 3        O=C(Nc1ccccc1C(=O)N1CCCCC1)c1ccco1           False
 4  CC(=NCC1CCCO1)c1c(O)[nH]c(=O)[nH]c1=O (centres undefined)           False
 5  CC(=O)c1cccc(NC(=O)C2CCCN2S(=O)(=O)c2cccc3nsnc23)c1 (centres undefined)           False
 6  CCN(CCN(C)C)C(=O)c1ccc2nc(C)c(N(C)C(=O)CCc3ccccc3)n2c1           False
 7  CCOCCCN(C)C1CCN(C(=O)c2oc3ccccc3c2NC(=O)COc2cccc(C)c2)CC1           False
 8   O=C(Nc1ccc(N2CCOCC2)cc1)c1ccc2c(c1)OCO2           False
 9   Cc1ccc(OCC(=O)Oc2ccccc2[N+](=O)[O-])cc1           False
10  Cc1cc(OCCCCOc2ccc(C#N)cc2)ccc1[N+](=O)[O-]            True
11  O=c1c(-c2cc(F)cc(F)c2)nc2cnc(Oc3ccccc3)nc2n1C[C@H]1CCCO1           False
12  CN1CCN(c2ccc(NC(=O)c3ccc4c(c3)OCCO4)cc2Cl)CC1           False
13  COC(=O)C(=Nc1ccccc1)/C(C(=O)C(=O)N(C)c1ccccc1)=C(\O)c1ccc(Cl)cc1           False
14         CCN(CC)Cc1c(C(=O)OC)nnn1-c1nonc1N           False
15      O=C(c1c(F)cccc1Cl)N1CCN(c2ccccn2)CC1           False
16      COCC(=O)Nc1c(C(=O)N2CCCC2)oc2ccccc12           False
17  COc1ccccc1NC(=O)C1=C(C)Nc2nc(SCC(=O)c3ccc(C)cc3)nn2C1c1ccccc1C (centres undefined)           False
18  Cc1ccc(NC(=O)c2cn3c4c(ccc(Cl)c4c2=O)OC(C)C3)cc1C (centres undefined)           False

###

assay: qHTS for Inhibitors of human tyrosyl-DNA phosphodiesterase 1 (TDP1): qHTS in cells in absence of CPT; details: DT40 Tdp1-/- hTDP1 cells, no CPT, ATP luminescence, 48 h; also: nearly all actives have a fitted effect of over 55% in size
Screen size: about 420,000 compounds; about 64,000 (15%) were called active. About 27% were inconclusive and are not listed. Calls follow the shape of the dose curve; as a rule, active = well fitted inhibition curve with a large enough effect; inconclusive = small, poorly fitted or top-dose-only effect; inactive = flat fitted curve, though single readings scatter. These entries were drawn from the full list.
Labels: 1 for active, -1 for inactive

>>> df
                                   compound  discrete_label
0            Cc1nnc(SCc2cccc(Cl)c2)n(N)c1=O              -1
1  Cc1cc(C)n2c(Nc3c(C)cccc3C)c(CCc3ccccc3)nc2n1               1
2  CCOc1ccc(N2CC(C(=O)NCc3ccccn3)CC2=O)cc1 (centres undefined)              -1
3  O=C(NCC1CCCO1)/C(=C/c1ccc(Cl)cc1)NC(=O)c1ccccc1 (centres undefined)              -1

###

test: qHTS for Inhibitors of human tyrosyl-DNA phosphodiesterase 1 (TDP1): qHTS in cells in absence of CPT; settings: DT40 Tdp1-/- hTDP1 cells, no CPT, ATP luminescence, 48 h; also: nearly all actives have a fitted effect of over 55% in size
Out of some 420,000 compounds screened, about 64,000 (15%) were called active. Roughly 27% stayed inconclusive and do not appear here. Calls come from the whole dose curve; as a rule, active = well fitted inhibition curve with a large enough effect; inconclusive = small, poorly fitted or top-dose-only effect; inactive = flat fitted curve, though single readings scatter. The list is a sample of the results.
Labels: active, inactive

                                    compound  discrete_label
 0  O=C(NCC1CCCO1)c1cc2c([nH]c3ccccc32)c(-c2ccc(F)cc2)n1 (stereo not drawn)          active
 1  COc1ccc(CCNC(=O)c2ccccc2-c2ccccc2C(=O)O)cc1OC        inactive
 2             Cc1ccc(C(=O)C(=S)N2CCOCC2)cc1        inactive
 3  CC(=O)c1ccc(-n2nnnc2SCC(=O)N2CCN(C(=O)c3ccco3)CC2)cc1        inactive
 4            CNC(=S)N/N=C/c1ccc(N2CCOCC2)s1          active
 5   CCOc1ccc(Cn2nnc(C(=O)NCc3ccccc3)c2N)cc1        inactive
 6      Cc1ccc2nnn(Cc3cccc(C(C)(C)C)c3O)c2c1          active
 7  COc1ccccc1CNC(=O)COC(=O)CNS(=O)(=O)c1ccc(NC(C)=O)cc1        inactive
 8      CC(C)(C)n1nnc(CCc2nnn(C(C)(C)C)n2)n1        inactive
 9  O=C(CNS(=O)(=O)c1ccccc1)N1CCN(C(=O)c2ccco2)CC1        inactive
10  COc1ccc(N(CC(=O)NCCSCc2cccc(Cl)c2)S(C)(=O)=O)cc1        inactive
11  FC(F)(F)c1nc(-c2ccccc2)ncc1-c1nnnn1-c1ccccc1          active
12  CCOc1ccc(N(Cc2ccccc2)C(=O)c2nc(SCC)ncc2Cl)cc1          active
